Origin of values: paper PMC7717712

# assay target: human carbonic anhydrase II (hCA II) (Homo sapiens, UniProt P00918)
# Construct: from tissue
# method description: CO2 hydratase activity assay (Maren method), hCA II
# Format: biochemical
# details: hydratase method; enzyme purified from human erythrocytes; read-out: IC50 (hydratase) hCA II
Counter-ions that a name gives are not always drawn.
Label key: label 1 means IC50 under 200 µM; label 0 means IC50 of 200 µM or more.

compound	class
CC(C)c1c(C(=O)Nc2ccccc2)c(-c2ccccc2)c(-c2ccc(F)cc2)n1CC[C@@H](O)C[C@@H](O)CC(=O)O	label 0
CCCCC1=NC2(CCCC2)C(=O)N1Cc1ccc(-c2ccccc2-c2nnn[nH]2)cc1	label 0
C[C@H](CS)C(=O)N1CCC[C@H]1C(=O)O	label 1
COC(=O)C1=C(C)NC(C)=C(C(=O)OC(C)(C)CN(C)CCC(c2ccccc2)c2ccccc2)C1c1cccc([N+](=O)[O-])c1 (centres unmarked) [Lercanidipine hydrochloride]	label 1
COCCc1ccc(OCC(O)CNC(C)C)cc1 (centres unmarked) [Metoprolol succinate]	label 1

---

# assay target: human carbonic anhydrase II (hCA II) (Homo sapiens, UniProt P00918)
# Construct: from tissue
# method description: CO2 hydratase activity assay (Maren method), hCA II
# Assay type: biochemical
# details: hydratase method; enzyme purified from human erythrocytes; read-out: IC50 (hydratase) hCA II
Where a name gives a salt, the structure may show the parent alone.
IC50 class ranges: bin A: < 100 µM; bin B: ≥ 100 µM and < 200 µM; bin C: ≥ 200 µM

In [3]: df
Out[3]:
                                    compound  class
 0  CCCNCC(O)COc1ccccc1C(=O)CCc1ccccc1 (stereo not shown) [Propafenone]  bin C
 1  CCN(CC)CC(=O)Nc1c(C)cccc1C [Lidocaine HCl]  bin A
 2  COc1ccc([C@@H]2Sc3ccccc3N(CCN(C)C)C(=O)[C@@H]2OC(C)=O)cc1 [Diltiazem]  bin C
 3  OC(CNCC(O)C1CCc2cc(F)ccc2O1)C1CCc2cc(F)ccc2O1 (stereo not shown) [Nebivolol hydrochloride]  bin A
 4  COc1cc2nc(N3CCN(C(=O)C4COc5ccccc5O4)CC3)nc(N)c2cc1OC (stereo not shown) [Doxazosin mesylate]  bin C
 5  CCCCCCOC(=O)NC(=N)c1ccc(NCc2nc3cc(C(=O)N(CCC(=O)OCC)c4ccccn4)ccc3n2C)cc1 [Dabigatran etexilate]  bin B
 6  COc1ccccc1OCCNCC(O)COc1cccc2[nH]c3ccccc3c12 (stereo not shown) [Carvedilol]  bin A
 7  CCOC(=O)C1=C(COCCN)NC(C)=C(C(=O)OC)C1c1ccccc1Cl (stereo not shown) [Amlodipine]  bin B
 8  CC(C)NCC(O)COc1ccc(COCCOC(C)C)cc1 (stereo not shown) [Bisoprolol hemifumarate]  bin C
 9  CCOC(=O)[C@H](CCc1ccccc1)N[C@@H](C)C(=O)N1[C@H](C(=O)O)C[C@@H]2CCC[C@@H]21 [Ramipril]  bin B
10  COC(=O)[C@H](c1ccccc1Cl)N1CCc2sccc2C1 [Clopidogrel]  bin C
11  CN1CCc2nc(C(=O)N[C@@H]3C[C@@H](C(=O)N(C)C)CC[C@@H]3NC(=O)C(=O)Nc3ccc(Cl)cn3)sc2C1 [Edoxaban]  bin A
12  CCOC(=O)C1=C(C)NC(C)=C(C(=O)OCC)C1c1ccccc1/C=C/C(=O)OC(C)(C)C [Lacidipine]  bin C
